experimentNotes: Parallel Artificial Membrane Permeability Assay (PAMPA)
Format: in vitro ADME
recordedConditions: prediction of blood brain barrier penetration by passive diffusion, high Pe>4.0×10^-06, low Pe<2.0×10^-06 cm/sec
resultType: Papp

cpdsmiles=Cc1ccc(N(CCCN2CCC(Cc3ccc(F)cc3)CC2)C(=O)C2CCN(C(=O)CF)CC2)cc1Cl reportedvalue="6.8 ×10⁻⁶ cm/s"

Data provenance: patent US20130129626A1
